Value source: paper PMC4065332

- tested_on: T1, PEX5 (340–728), termed PEX5C (Arabidopsis thaliana, UniProt Q9FMA3 340-728)
- T1 construct: Arabidopsis PEX5 residues 340-728; holds six of the nine W-X3-F/Y motifs and the TPR domain; lacks residues 314-334; also called His6-PEX5C; AtPEX5C; source: E. coli, purified via IMAC
- T1 sequence (looked up): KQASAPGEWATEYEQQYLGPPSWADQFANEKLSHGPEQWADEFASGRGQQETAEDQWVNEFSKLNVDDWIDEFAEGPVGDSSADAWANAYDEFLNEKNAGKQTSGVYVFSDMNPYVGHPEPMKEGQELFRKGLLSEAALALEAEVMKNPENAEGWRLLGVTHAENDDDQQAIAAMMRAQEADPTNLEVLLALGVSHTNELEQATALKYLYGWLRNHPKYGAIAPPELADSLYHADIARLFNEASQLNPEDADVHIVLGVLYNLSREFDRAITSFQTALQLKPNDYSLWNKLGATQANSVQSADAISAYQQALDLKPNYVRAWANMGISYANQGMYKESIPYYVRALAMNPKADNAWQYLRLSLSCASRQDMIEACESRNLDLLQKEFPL
- procedure_text: fluorescence polarisation; fluorescence anisotropy; the same dilution series of PEX5C with lissamine-YQSKL (100 nM) after addition of PEX14N to a constant 1 μM; HEPES 20 mM, NaCl 150 mM, pH 7.5
- run_conditions: both partners purified
pKd: −log10 of the molar value. Where no end group is shown, it is not given here. lissamine = lissamine: fluorescent label (lissamine) on the peptide
property: pKd

binder	property	experimental_value
lissamine-YQSKL (canonical PTS1 cargo peptide; The name puts the lissamine before the peptide; also called lissamine-PTS1; PTS1) [lissamine-YQSKL]	pKd	7.94
